Recorded values, source paper PMC10693528.

Assay: Cell viability (ATP, CellTiter-Glo) in parallel with metabolomics experiments
Settings: human, Percentage of viability (ATP) compared to the vehicle control, C4, C4, 48 h, n = 6
Endpoint name: viability at 48 h

>  <Molecule>
CCC(CC)Nc1c([N+](=O)[O-])cc(C)c(C)c1[N+](=O)[O-] [Pendimethalin]

>  <Result>
36.1%

$$$$

###

Assay: Cell viability (ATP, CellTiter-Glo) in parallel with metabolomics experiments
Conditions: human, HepG2 cells, Percentage of viability (ATP) compared to the vehicle control, C3, C3, 48 h, n = 6
Endpoint name: viability at 48 h

>  <Compound>
Cc1cccc(Nc2cc(Cl)nc(SCC(=O)O)n2)c1C

>  <Endpoint name>
viability at 48 h

>  <Result>
94.6%

$$$$
>  <Compound>
O=C(O)c1cc(Oc2ccc(C(F)(F)F)cc2Cl)ccc1[N+](=O)[O-]

>  <Endpoint name>
viability at 48 h

>  <Result>
99.9%

$$$$
>  <Compound>
O=c1cc(-c2ccccc2)oc2ccc3ccccc3c12

>  <Endpoint name>
viability at 48 h

>  <Result>
104%

$$$$
>  <Compound>
CC(=O)N1CCN(c2ccc(OCC3COC(Cn4ccnc4)(c4ccc(Cl)cc4Cl)O3)cc2)CC1 (stereo not shown)

>  <Endpoint name>
viability at 48 h

>  <Result>
91.2%

$$$$
